# Tested on: 253994-281-T-J1-PDC KRAS-mutant spheroids with HUVEC/MSC, viability;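 note: spheroids exposed to agents for seven days before readout; percent of DMSO vehicle control viability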
# Procedure Details: Anticancer human tumor 253994-281-T-J1-PDC patient-derived colorectal carcinoma cell line growth inhibition [KRAS2]
# Particulars: second compound 0.316 µM; first compound 1 µM; hits give low values
Items are presented alongside their recorded viability, T/C.
Number in %, nothing else.

Guide cases for viability, T/C, answers given:
molecule="O=C(c1cc(Cc2n[nH]c(=O)c3ccccc23)ccc1F)N1CCN(C(=O)C2CC2)CC1 + C=CC(=O)N1CCN(c2nc(OCC3CCCN3C)nc3c2CCN(c2cccc4cccc(C)c24)C3)CC1CC#N" experimental_result=73
molecule="CCN1CCN(Cc2ccc(Nc3ncc(F)c(-c4cc(F)c5nc(C)n(C(C)C)c5c4)n3)nc2)CC1 + C=CC(=O)N1CCN(c2nc(=O)n(-c3c(C)ccnc3C(C)C)c3nc(-c4c(O)cccc4F)c(F)cc23)C(C)C1" experimental_result=50.4
molecule="COc1cc2nccc(Oc3ccc(NC(=O)C4(C(=O)Nc5ccc(F)cc5)CC4)cc3)c2cc1OC + CC1OCC2(CCN(c3cnc(Sc4ccnc(N)c4Cl)c(N)n3)CC2)C1N" experimental_result=83.3
molecule="CC(=O)OC12COC1CC(O)C1(C)C(=O)C(O)C3=C(C)C(OC(=O)C(O)C(NC(=O)OC(C)(C)C)c4ccccc4)CC(O)(C(OC(=O)c4ccccc4)C21)C3(C)C (stereo not given) + CC1OCC2(CCN(c3cnc(Sc4ccnc(N)c4Cl)c(N)n3)CC2)C1N" experimental_result=20.3

Let's switch to this molecule now.
Task: Fill in viability, T/C for COc1cc(Nc2ncc3c(n2)-c2ccc(Cl)cc2C(c2c(F)cccc2OC)=NC3)ccc1C(=O)O + C=CC(=O)N1CCN(c2nc(OCC3CCCN3C)nc3c2CCN(c2cccc4cccc(C)c24)C3)CC1CC#N tested with 253994-281-T-J1-PDC KRAS-mutant spheroids with HUVEC/MSC, viability.
Output: 45.9

Data origin, for the record: PubChem BioAssay AID1963874
